Below is a list of entries, each paired with its recorded PRE Application IPOHE herbicidal damage (five point scale) value.
- Test system: Ipomoea hederacea (IPOHE)
- methodDescription: Pre-emergence herbicidal glasshouse test on Ipomoea hederacea
- Type: in vivo
- recordedConditions: pre-emergence; 1000 g/h; evaluated after 13 days
propertyLabel: PRE Application IPOHE herbicidal damage (five point scale)

• Cc1cc(Cl)ccc1-c1cnn(C)c(=O)c1O = 1 (1=0-19% damage)
• COc1cccc(-c2c(C(F)(F)F)ccn(-c3cnn(C)c(=O)c3O)c2=O)c1 = 3 (3=40-59% damage)
• Cn1nc([N+](=O)[O-])c(-c2ccc(C(F)(F)F)cc2S(C)(=O)=O)c(O)c1=O = 5 (5=80-100% damage)
• CS(=O)(=O)c1cc(C(F)(F)F)ccc1-c1cnn(C2CC2)c(=O)c1O = 5 (5=80-100% damage)
• COc1ccc(Cl)c(-c2cnn(C)c(=O)c2O)c1 = 1 (1=0-19% damage)
• Cn1ncc(-n2ccc(C(F)(F)F)c(-c3ccc(C#N)cc3)c2=O)c(O)c1=O = 5 (5=80-100% damage)
• Cn1ncc(-c2ccc(S(C)(=O)=O)c(Cl)c2Cl)c(O)c1=O = 1 (1=0-19% damage)
• Cn1ncc(-n2ccc(C(F)(F)F)c(-c3cccc(F)c3)c2=O)c(O)c1=O = 1 (1=0-19% damage)

----------
Below is a list of entries, each paired with its recorded POST Application ALOMY herbicidal damage (five point scale) value.
- System: Alopecurus myosuroides (ALOMY)
- methodDescription: Post-emergence herbicidal glasshouse test on Alopecurus myosuroides
- Assay type: in vivo
- recordedConditions: post-emergence; 1000 g/h; evaluated after 13 days
propertyLabel: POST Application ALOMY herbicidal damage (five point scale)

- Cn1ncc(-c2ccc(C(F)(F)F)n(-c3cccc(C(F)(F)F)n3)c2=O)c(O)c1=O: 4 (4=60-79% damage)
- Cn1ncc(-n2cc(N3CCOCC3)c(C(F)(F)F)cc2=O)c(O)c1=O: 1 (1=0-19% damage)
- Cc1c(-c2c(C(C)C)nn(C)c(=O)c2O)ccc(S(C)(=O)=O)c1C1=NOCC1: 5 (5=80-100% damage)
- Cn1ncc(-c2ccc(SCc3ccccc3)cc2S(C)(=O)=O)c(O)c1=O: 4 (4=60-79% damage)
- CC(C)(C)n1ncc(-c2c(Cl)cccc2Cl)c(O)c1=O: 1 (1=0-19% damage)
- CC(C)S(=O)(=O)c1ccccc1-c1cnn(C)c(=O)c1O: 5 (5=80-100% damage)
- Cn1ncc(-c2ccc(C#N)cc2S(C)(=O)=O)c(O)c1=O: 5 (5=80-100% damage)
- CCCOc1nn(C)c(=O)c(O)c1-c1ccc(C(F)(F)F)cc1S(C)(=O)=O: 5 (5=80-100% damage)
- Cn1ncc(-n2ccc(C(F)(F)F)c(-c3ccc([N+](=O)[O-])cc3)c2=O)c(O)c1=O: 5 (5=80-100% damage)
- Cc1ccc(Cl)c(-c2c(C(F)(F)F)ccn(-c3cnn(C)c(=O)c3O)c2=O)c1: 3 (3=40-59% damage)
- CCn1ncc(-c2ccc(C(F)(F)F)cc2S(C)(=O)=O)c(O)c1=O: 5 (5=80-100% damage)
- Cc1c(-c2cnn(C3CC3)c(=O)c2O)ccc(S(C)(=O)=O)c1C1=NOCC1: 5 (5=80-100% damage)
- COC(=O)Oc1c(-c2ccc(C(F)(F)F)cc2S(C)(=O)=O)cnn(C)c1=O: 5 (5=80-100% damage)
- CN(C)c1c(Cl)ccc(-c2cnn(C)c(=O)c2O)c1F: 1 (1=0-19% damage)
- Cn1ncc(-c2ccc(Cl)cc2Cl)c(O)c1=O: 1 (1=0-19% damage)
- Cc1c(-c2cnn(CC3CC3)c(=O)c2O)ccc(S(C)(=O)=O)c1C1=NOCC1: 5 (5=80-100% damage)
- Cn1ncc(-c2ccccc2[N+](=O)[O-])c(O)c1=O: 1 (1=0-19% damage)
